molecular target: T1, siglec 9 expressed on HEK293 cells (UniProt Q9Y336 18-463, limits assumed); test: flow cytometry on HEK293 cells expressing the target
T1 construct: whole, on cells; also called Siglec-6 family member
T1 sequence (Q9Y336 18-463 limits assumed): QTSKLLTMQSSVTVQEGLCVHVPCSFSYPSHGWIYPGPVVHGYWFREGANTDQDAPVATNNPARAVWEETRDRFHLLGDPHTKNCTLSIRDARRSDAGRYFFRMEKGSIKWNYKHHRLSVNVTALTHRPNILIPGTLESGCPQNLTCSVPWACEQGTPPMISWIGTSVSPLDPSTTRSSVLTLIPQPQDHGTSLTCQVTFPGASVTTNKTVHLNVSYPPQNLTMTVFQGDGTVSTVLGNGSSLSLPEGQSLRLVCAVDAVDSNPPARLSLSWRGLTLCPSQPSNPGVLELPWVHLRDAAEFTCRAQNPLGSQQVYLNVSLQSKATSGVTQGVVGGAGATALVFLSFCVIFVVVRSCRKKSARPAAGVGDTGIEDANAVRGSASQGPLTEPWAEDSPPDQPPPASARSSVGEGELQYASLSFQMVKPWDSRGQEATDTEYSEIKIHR
result-type: binding result

INSERT INTO measurements (binder, result_type, reported_result) VALUES
  ('hRND-5 (antibody, human IgG1, kappa, V domains shown, also called humanized RND-5; hRND-H3b / hRND-L3; copies: 2 + 2) VH: QVQLVQSGAEVKKPGASVKLSCKASGYAFTSYWMHWVRQAPGQRLEWIGEIYPTNGGTTYNEKFKRRATLTVDKSTSTAYMELSRLRSDDTAVYYCTIEDFYAMDYWGQGTTVTVSS VL: DIVMTQTPLSLSVTPGQPASISCKSSQSLLDSDGKTSLNWLLQKPGQSPQRLIYLVSKLDSGVPDRFSGSGSGTDFTLKISRVEAEDVGVYYCWQGTHFPYTFGQGTKLEIKR', 'binding result', 'no binding'),
  ('hRND-2 (antibody, human IgG1, kappa, V domains shown, also called humanized RND-2; hRND-H2 / hRND-L3; copies: 2 + 2) VH: QVQLVQSGAEVKKPGASVKVSCKASGYAFTSYWMHWVRQAPGQRLEWMGEIYPTNGGTTYAQKFQGRVTMTVDKSTSTAYMELSRLRSDDTAVYYCTIEDFYAMDYWGQGTTVTVSS VL: DIVMTQTPLSLSVTPGQPASISCKSSQSLLDSDGKTSLNWLLQKPGQSPQRLIYLVSKLDSGVPDRFSGSGSGTDFTLKISRVEAEDVGVYYCWQGTHFPYTFGQGTKLEIKR', 'binding result', 'no binding'),
  ('hRND-4 (antibody, human IgG1, kappa, V domains shown, also called humanized RND-4; hRND-H2b / hRND-L3; copies: 2 + 2) VH: QVQLVQSGAEVKKPGASVKVSCKASGYAFTSYWMHWVRQAPGQRLEWMGEIYPTNGGTTYNEKFKRRVTMTVDKSTSTAYMELSRLRSDDTAVYYCTIEDFYAMDYWGQGTTVTVSS VL: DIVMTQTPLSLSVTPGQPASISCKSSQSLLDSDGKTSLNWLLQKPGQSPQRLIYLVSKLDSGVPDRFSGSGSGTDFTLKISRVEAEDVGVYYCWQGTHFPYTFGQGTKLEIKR', 'binding result', 'no binding');
